study_system: T1, Activin receptor II ectodomain
T1 construct: extracellular domain; Biotinylated, immobilised on a streptavidin chip; also called ARII; type II receptor ARII
T1 sequence (P27037 20-135): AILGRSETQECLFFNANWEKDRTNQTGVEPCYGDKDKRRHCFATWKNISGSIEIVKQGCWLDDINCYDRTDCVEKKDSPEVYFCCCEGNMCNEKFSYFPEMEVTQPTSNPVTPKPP
assay_name: BIAcore, immobilised ARII ectodomain, mutein as analyte, against BMP-2 wild type
recorded_endpoint: KD(Mut)/KD(WT) (ratio)
One number for each entry, in ratio.

Recorded KD(Mut)/KD(WT), per entry:
binder: BMP-2 L51P (ligand, also called L51P mutein; BMP-2 proline mutein L51P) QAKHKQRKRLKSSCKRHPLYVDFSDVGWNDWIVAPPGYHAFYCHGECPFPPADHLNSTNHAIVQTLVNSVNSKIPKACCVPTELSAISMLYLDENEKVVLKNYQDMVVEGCGCR
value_observed: 2.3
//
binder: BMP-2 D53P (ligand, also called BMP-2 proline mutein D53P) QAKHKQRKRLKSSCKRHPLYVDFSDVGWNDWIVAPPGYHAFYCHGECPFPLAPHLNSTNHAIVQTLVNSVNSKIPKACCVPTELSAISMLYLDENEKVVLKNYQDMVVEGCGCR
value_observed: 1.2
//
binder: BMP-2 D53A (ligand) QAKHKQRKRLKSSCKRHPLYVDFSDVGWNDWIVAPPGYHAFYCHGECPFPLAAHLNSTNHAIVQTLVNSVNSKIPKACCVPTELSAISMLYLDENEKVVLKNYQDMVVEGCGCR
value_observed: 1.2
//
binder: BMP-2 Y103A (ligand) QAKHKQRKRLKSSCKRHPLYVDFSDVGWNDWIVAPPGYHAFYCHGECPFPLADHLNSTNHAIVQTLVNSVNSKIPKACCVPTELSAISMLYLDENEKVVLKNAQDMVVEGCGCR
value_observed: 1.4

Give KD(Mut)/KD(WT) for each listed item.
1. BMP-2 W28F (ligand, also called W28F mutein) QAKHKQRKRLKSSCKRHPLYVDFSDVGFNDWIVAPPGYHAFYCHGECPFPLADHLNSTNHAIVQTLVNSVNSKIPKACCVPTELSAISMLYLDENEKVVLKNYQDMVVEGCGCR
2. BMP-2 S69R (ligand, also called S69R mutein) QAKHKQRKRLKSSCKRHPLYVDFSDVGWNDWIVAPPGYHAFYCHGECPFPLADHLNSTNHAIVQTLVNRVNSKIPKACCVPTELSAISMLYLDENEKVVLKNYQDMVVEGCGCR

Response:
1.2
0.9
